# assay target: recombinant human neuronal calcium channel α1B-2β1-2 (human), Q00975
# protocol text: 125I-ω-CgTx GVIA saturation binding to transiently transfected HEK293 cells
pKd: −log10 of the molar value.
assay endpoint: pKd

binder="CKSPGSSCSPTSYNCCRSCNPYTKRCYG (modifications not checked) [125I-ω-CgTx GVIA, P01522 46-73]" reported_result=10.79
